Species on record: Homo sapiens
assay text: Inhibitory activity against platelet aggregation, induced by arachidonic acid in human platelet rich plasma
Type: functional
recorded conditions: read-out: I50
readout kind: IC50

[[record]]
compound = "O=C(O)CCc1ccccc1CC1C2CCC(O2)C1c1nc(C(=O)NCCc2ccccc2)co1 (centres undefined)"
reading = "9 nM"

[[record]]
compound = "CCCCCN(C)C(=O)c1coc(C2C3CCC(O3)C2Cc2ccccc2CCC(=O)O)n1 (centres undefined)"
reading = "9 nM"

[[record]]
compound = "CC(C)(C)CCNC(=O)c1coc(C2C3CCC(O3)C2Cc2ccccc2CCC(=O)O)n1 (centres undefined)"
reading = "8 nM"

[[record]]
compound = "O=C(O)CCc1ccccc1CC1C2CCC(O2)C1c1nc(C(=O)Nc2ccc(Cl)cc2)co1 (centres undefined)"
reading = "6 nM"

